Protocol Text: Intrinsic clearance in human liver microsomes
Run Parameters: liver microsomes
Measured Parameter: microsomal CLint (µL/min/mg)

[[record]]
compound = "CCN(C(=O)Cc1ccc(S(C)(=O)=O)cc1)C1CCN(CC[C@@H](c2cccc(OC)c2)C2CCN(S(C)(=O)=O)CC2)CC1"
measured_parameter = "microsomal CLint"
unit_spec = "µL/min/mg"
endpoint_value = 45

[[record]]
compound = "CCN(C(=O)Cc1ccc(S(C)(=O)=O)cc1)C1CCN(CC[C@@H](c2ccccc2)C2CCN(S(C)(=O)=O)CC2)CC1"
measured_parameter = "microsomal CLint"
unit_spec = "µL/min/mg"
endpoint_value = 31

[[record]]
compound = "CCN(C(=O)Cc1ccc(S(C)(=O)=O)cc1)C1CCN(CCC(c2ccccc2)C2CCN(S(=O)(=O)CC(F)(F)F)CC2)CC1 (stereo not drawn)"
measured_parameter = "microsomal CLint"
unit_spec = "µL/min/mg"
endpoint_value = 28


---

Protocol Text: Lipophilicity, log D of the compound at pH 7.4
Run Parameters: buffer
Measured Parameter: logD

[[record]]
compound = "CCN(C(=O)Cc1ccc(S(C)(=O)=O)cc1)C1CCN(CC[C@@H](c2cccc(C(F)(F)F)c2)C2CCN(S(C)(=O)=O)CC2)CC1"
measured_parameter = "logD"
endpoint_value = 1.9

[[record]]
compound = "CCN(C(=O)Cc1ccc(S(C)(=O)=O)cc1)C1CCN(CCC(c2ccccc2)N2CCC(C)CC2)CC1 (racemic)"
measured_parameter = "logD"
endpoint_value = 2

[[record]]
compound = "CCN(C(=O)Cc1ccc(S(C)(=O)=O)cc1)C1CCN(CC[C@@H](c2cc(C)cc(C)c2)C2CCN(S(C)(=O)=O)CC2)CC1"
measured_parameter = "logD"
endpoint_value = 1.9

[[record]]
compound = "CCN(C(=O)Cc1ccc(S(C)(=O)=O)cc1)C1CCN(CCC(c2ccccc2)C2CCN(S(=O)(=O)CC)CC2)CC1 (racemic)"
measured_parameter = "logD"
endpoint_value = 1.6

[[record]]
compound = "CCN(C(=O)Cc1ccc(S(C)(=O)=O)cc1)C1CCN(CCC(c2ccccc2)N2CCN(C)CC2)CC1 (racemic)"
measured_parameter = "logD"
endpoint_value = 0.9

[[record]]
compound = "CCN(C(=O)Cc1ccc(S(C)(=O)=O)cc1)C1CCN(CC[C@@H](c2cc(F)cc(Cl)c2)C2CCN(S(C)(=O)=O)CC2)CC1"
measured_parameter = "logD"
endpoint_value = 1.6

[[record]]
compound = "CCN(C(=O)Cc1ccc(S(C)(=O)=O)cc1)C1CCN(CC[C@@H](c2cccc(OC)c2)C2CCN(S(C)(=O)=O)CC2)CC1"
measured_parameter = "logD"
endpoint_value = 1.2

[[record]]
compound = "CCN(C(=O)Cc1ccc(S(C)(=O)=O)cc1)C1CCN(CCC(c2ccccc2)C2CCN(C)CC2)CC1 (racemic)"
measured_parameter = "logD"
endpoint_value = 1

[[record]]
compound = "CCN(C(=O)Cc1ccc(S(C)(=O)=O)cc1)C1CCN(CC[C@@H](c2cc(F)cc(F)c2)N2CCN(S(C)(=O)=O)CC2)CC1"
measured_parameter = "logD"
endpoint_value = 1.2

[[record]]
compound = "CCN(C(=O)Cc1ccc(S(C)(=O)=O)cc1)C1CCN(CC[C@@H](c2cccc(C)c2)C2CCN(S(C)(=O)=O)CC2)CC1"
measured_parameter = "logD"
endpoint_value = 1.5


---

System: C-C chemokine receptor type 5 (Homo sapiens, UniProt P51681)
Sequence (P51681 whole entry): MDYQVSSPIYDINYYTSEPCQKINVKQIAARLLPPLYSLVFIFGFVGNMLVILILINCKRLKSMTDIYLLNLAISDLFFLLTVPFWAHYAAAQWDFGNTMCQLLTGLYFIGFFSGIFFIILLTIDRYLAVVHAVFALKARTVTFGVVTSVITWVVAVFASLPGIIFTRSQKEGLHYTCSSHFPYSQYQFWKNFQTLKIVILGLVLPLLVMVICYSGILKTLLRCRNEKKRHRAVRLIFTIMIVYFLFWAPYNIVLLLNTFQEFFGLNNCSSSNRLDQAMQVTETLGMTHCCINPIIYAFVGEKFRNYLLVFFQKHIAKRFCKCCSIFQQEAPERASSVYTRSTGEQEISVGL
Protocol Text: Displacement of [125I]MIP-1alpha from human recombinant CCR5 expressed in CHO cells
Checkbox rule: IC50 lower than 20 nM = t; IC50 not lower than 20 nM = f.

[[record]]
compound = "CCN(C(=O)Cc1ccc(S(C)(=O)=O)cc1)C1CCN(CCC(c2ccccc2)N2CCC(Cc3ccccc3)CC2)CC1 (racemic)"
assigned_class = "f"

[[record]]
compound = "CCN(C(=O)Cc1ccc(S(C)(=O)=O)cc1)C1CCN(CCC(c2ccccc2)C2CCN(S(=O)(=O)CC)CC2)CC1 (racemic)"
assigned_class = "t"

[[record]]
compound = "CCN(C(=O)Cc1ccc(S(C)(=O)=O)cc1)C1CCN(CC[C@@H](c2ccccc2)C2CCN(S(=O)(=O)C(F)(F)F)CC2)CC1"
assigned_class = "t"

[[record]]
compound = "CCN(C(=O)Cc1ccc(S(C)(=O)=O)cc1)C1CCN(CCC(c2ccccc2)C2CCN(Cc3ccccc3)CC2)CC1 (racemic)"
assigned_class = "t"

[[record]]
compound = "CCN(C(=O)Cc1ccc(S(C)(=O)=O)cc1)C1CCN(CC[C@@H](c2cccc(Cl)c2)C2CCN(S(C)(=O)=O)CC2)CC1"
assigned_class = "t"

[[record]]
compound = "CCN(C(=O)Cc1ccc(S(C)(=O)=O)cc1)C1CCN(CC[C@@H](c2cccc(C(F)(F)F)c2)C2CCN(S(C)(=O)=O)CC2)CC1"
assigned_class = "t"

[[record]]
compound = "CCN(C(=O)Cc1ccc(S(C)(=O)=O)cc1)C1CCN(CC[C@@H](c2cccc(S(C)(=O)=O)c2)C2CCN(S(C)(=O)=O)CC2)CC1"
assigned_class = "f"

[[record]]
compound = "CCN(C(=O)Cc1ccc(S(C)(=O)=O)cc1)C1CCN(CCC(c2ccccc2)N2CCN(S(=O)(=O)CC)CC2)CC1 (racemic)"
assigned_class = "t"


From: ChEMBL document CHEMBL1949642
